Cited source for all entries: patent US20220106398A1

Biological target: T1, cynomolgus monkey His6-GITR (cynomolgus monkey)
T1 construct: His6-tagged recombinant protein; also called cGITR-His; cyno GITR-His
T1 chain: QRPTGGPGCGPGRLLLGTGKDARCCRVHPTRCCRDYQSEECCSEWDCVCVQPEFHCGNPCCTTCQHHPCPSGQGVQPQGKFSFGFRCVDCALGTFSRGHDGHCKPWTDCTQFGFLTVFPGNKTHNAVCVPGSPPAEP
Assay: ELISA, scFv periplasmic extract on coated His6-GITR
ENDPOINT NAME: log10(cGITR-His/BKG) (log10 of the value in fold over background)
Scale type: logarithmic (base 10). Underlying cGITR-His/BKG unit: fold over background.

Batch: log10(cGITR-His/BKG) for all items listed.
1. GITR-Mab-5 scFv (scFv, V domains shown, scFv in periplasmic extract, V5 tag) VH: EVQLLESGGGLVQPGGSLRLSCAASGFTFDAYAMHWVRQAPGKGLEWVSAIGTGGDTYYADSVKGRFTISRDNSKNTLYLQMNSLRAEDTAVYYCARDLYGSGSPQYYYYYGMDVWGQGTTVTVSS VL: DIQMTQSPSSLSASVGDRVTITCRASQGIKNDLGWYQQKPGKAPKLLIYAASSLQSGVPSRFSGSGSGTDFTLTISSLQPEDFATYYCQQSYSVPFTFGQGTKVEIK
2. GITR-Mab-31 scFv (scFv, V domains shown, scFv in periplasmic extract, V5 tag) VH: QVQLVQSGAEVKKPGSSVKVSCKASGGTFSSYAISWVRQAPGQGLEWMGGIIPISSATSIPQKFQGRVTITADESTSTAYMELSSLRSEDTAVYYCARSYDSRYYGMDVWGQGTTVTVSS VL: EIVMTQSPATLSVSPGERATLSCRASQTVGSRYLAWYQQKPGQAPRLLIYGASTRATGIPARFSGSGSGTEFTLTISSLQSEDFAVYYCQQYYSTPWTFGQGTRLEIK
3. GITR-Mab-12 scFv (scFv, V domains shown, scFv in periplasmic extract, V5 tag) VH: QVQLVQSGAEVKKPGASVKVSCKASGYTFTSYAINWVRQAPGQGLEWMGILSPSGGGTSYAPKFQGRVTMTRDTSTSTVYMELSSLRSEDTAVYYCARGPWYFDLWGRGTLVTVSS VL: DIQMTQSPSSLSASVGDRVTITCRASQGISNSLAWYQQKPGKAPKLLIYAASSLQSGVPSRFSGSGSGTDFTLTISSLQPEDFATYYCQQSYSTPFTFGPGTKVDIK
4. GITR-Mab-10 scFv (scFv, V domains shown, scFv in periplasmic extract, V5 tag) VH: QVQLVQSGAEVKKPGASVKVSCKASGYTFTSNYMHWVRQAPGQGLEWMGWMNPNSGNTAYAQKFQGRVTMTRDTSTSTVYMELSSLRSEDTAVYYCARGRGGQLLFDYWGQGTLVTVSS VL: DIQMTQSPSSLSASVGDRVTITCRASQGISSWLAWYQQKPGKAPKLLIYAASTLQSGVPSRFSGSGSGTDFTLTISSLQPEDFATYYCQQYNSYSTFGQGTKVEIK
5. GITR-Mab-3 scFv (scFv, V domains shown, scFv in periplasmic extract, V5 tag) VH: QVQLVQSGAEVKKPGASVKVSCKASGYTFTSYDINWVRQAPGQGLEWMGWISGYNGNTNYAQKFQGRVTMTRDTSTSTVYMELSSLRSEDTAVYYCARSHEYYYYYGMDVWGQGTLVTVSS VL: EIVMTQSPATLSVSPGERATLSCRASQSVSSSYLAWYQQKPGQAPRLLIYGASTRATGIPARFSGSGSGTEFTLTISSLQSEDFAVYYCQQYYTTPFTFGPGTKVDIK
6. GITR-Mab-25 scFv (scFv, V domains shown, scFv in periplasmic extract, V5 tag) VH: QVQLVQSGAEVKKPGASVKVSCKASGGTFSSYAISWVRQAPGQGLEWMGWVSGYNGNANYAQKFQGRVTMTRDTSTSTVYMELSSLRSEDTAVYYCARDRVESGYSYHDAFDIWGQGTMVTVSS VL: DIQMTQSPSSLSASVGDRVTITCRTSQSIRRYLNWYQQKPGKAPKLLIYAASSLQSGVPSRFSGSGSGTDFTLTISSLQPEDFATYYCQQSYSIPWTFGPGTKVDIK
7. GITR-Mab-32 scFv (scFv, V domains shown, scFv in periplasmic extract, V5 tag) VH: QVQLVQSGAEVKKPGASVKVSCKASGGTFSSYAISWVRQAPGQGLEWMGWMNPNSGDTGYAQKFQGRVTMTRDTSTSTVYMELSSLRSEDTAVYYCARGPWYFDLWGRGTLVTVSS VL: DIQMTQSPSSLSASVGDRVTITCRVSQGISNSLAWYQQKPGKAPKLLIYAASSLQSGVPSRFSGSGSGTDFTLTISSLQPEDFATYYCQQSYSTVYTFGQGTKLEIK

Result:
0.90
0.08
1.23
1.47
1.05
0.04
0.69
